# Tested on: Klebsiella pneumoniae
# TEST_PROTOCOL: Antibacterial activity against Klebsiella pneumoniae J/I/4 clinical isolate assessed as growth inhibition at 1 mg/ml after 24 hr by NCCLS agar diffusion method
# Assay type: functional
# ASSAY_CONTEXT: J/I/4, 24 h, read-out: DIZ
Listing: zone of inhibition at 1000 µg/mL of selected compounds
READOUT_KIND: zone of inhibition at 1000 µg/mL (mm)

>  <SMILES>
Cc1cc(C2(c3cc(C)c(N)cc3F)C(=O)c3ccccc3C2=O)c(F)cc1N

>  <READOUT_KIND>
zone of inhibition at 1000 µg/mL

>  <MEASURED>
7

$$$$
>  <SMILES>
Nc1ccc(C2(c3ccc(N)c(Cl)c3)C(=O)c3ccccc3C2=O)cc1Cl

>  <READOUT_KIND>
zone of inhibition at 1000 µg/mL

>  <MEASURED>
8

$$$$
>  <SMILES>
COc1cc(C2(c3ccc(N)c(OC)c3)C(=O)c3ccccc3C2=O)ccc1N

>  <READOUT_KIND>
zone of inhibition at 1000 µg/mL

>  <MEASURED>
7

$$$$
>  <SMILES>
Nc1ccc(C2(c3ccc(N)cc3)C(=O)c3ccccc3C2=O)cc1

>  <READOUT_KIND>
zone of inhibition at 1000 µg/mL

>  <MEASURED>
7

$$$$
>  <SMILES>
Nc1ccc(C2(c3ccc(N)c(Br)c3)C(=O)c3ccccc3C2=O)cc1Br

>  <READOUT_KIND>
zone of inhibition at 1000 µg/mL

>  <MEASURED>
6

$$$$
>  <SMILES>
CNc1ccc(C2(c3ccc(NC)cc3)C(=O)c3ccccc3C2=O)cc1

>  <READOUT_KIND>
zone of inhibition at 1000 µg/mL

>  <MEASURED>
7.5

$$$$
>  <SMILES>
Nc1c(Cl)cc(Cl)cc1C1(Nc2ccc(Cl)cc2Cl)C(=O)c2ccccc2C1=O

>  <READOUT_KIND>
zone of inhibition at 1000 µg/mL

>  <MEASURED>
7

$$$$
